# System under test: UniProt:P0DTD1
# Measurement description: NSP14 MTase inhibition assay at 37° C. (MTase-Glo SAH detection)
# Type: biochemical, SARS-CoV-2
# Measurement parameters: 37° C., 0.3 nM NSP14, 2.5 μM SAM, 2.5 μM GpppA RNA; read-out: Nsp14 Mtase Inh. IC50
pIC50: −log10 of the molar value.
Readout kind: pIC50

> print(dat)
                                    compound  readout.kind  operator.symbol  test.value
 1  Cc1c(S(=O)(=O)c2ccc3[nH]ncc3c2)cc(C(=O)NC(=O)c2ccccc2)n1C         pIC50                =        8.49
 2  Cc1c(S(=O)(=O)c2ccc3[nH]ncc3c2)cc(C(=O)NCc2[nH]c(=O)ccc2F)n1C         pIC50                =        9.43
 3  Cc1c(S(=O)(=O)c2ccc3[nH]ncc3c2)cc(C(=O)NCc2c(Cl)cnn2C)n1CC(F)F         pIC50                =        8.96
 4  Cc1c(S(=O)(=O)c2ccc3[nH]ncc3c2)cc(C(=O)N[C@H]2CCc3c(F)ccc(F)c32)n1C (single isomer, unassigned) [B.140]         pIC50                =        9.51
 5  Cn1ncc(Cl)c1CNC(=O)c1cc(S(=O)(=O)c2cccc(C#N)c2)c2n1CCC2         pIC50                =        7.01
 6  Cc1c(S(=O)(=O)c2cnc3[nH]ncc3c2)cc(C(=O)NCc2cccc3cnn(C4CC4)c23)n1C         pIC50                =        8.00
 7  Cn1ncc(Cl)c1CNC(=O)c1cc(S(=O)(=O)c2ccc3[nH]ncc3c2)c2n1CCC2         pIC50                =        8.07
 8  Cc1c(S(=O)(=O)c2ccc3[nH]ncc3c2)cc(C(=O)NCC2(COc3ncc(F)cn3)CC2)n1C         pIC50                =        8.57
 9  Cc1c(S(=O)(=O)c2ccc3[nH]ncc3c2)cc(C(=O)NCc2cccc3c2N(C)C(=O)CC3)n1C         pIC50                =        7.85
10  Cc1c(S(=O)(=O)c2ccc3[nH]ncc3c2)cc(C(=O)NCc2cccc3c(F)nn(C4CC4)c23)n1C         pIC50                =        8.48
11  Cc1c(S(=O)(=O)c2ccc3c(=O)[nH]ccc3c2)cc(C(=O)NCc2c(F)ccc3cnn(C4CC4)c23)n1C         pIC50                >        9.82
12  O=C(O)CCn1ncc2ccc(F)c(CNC(=O)c3cc(S(=O)(=O)c4cc(Cl)c5[nH]ncc5c4)c4n3CCC4)c21         pIC50                >        9.82
